- subject-of-test: Peptidyl-prolyl cis-trans isomerase A (Homo sapiens)
- Sequence (P62937 whole entry): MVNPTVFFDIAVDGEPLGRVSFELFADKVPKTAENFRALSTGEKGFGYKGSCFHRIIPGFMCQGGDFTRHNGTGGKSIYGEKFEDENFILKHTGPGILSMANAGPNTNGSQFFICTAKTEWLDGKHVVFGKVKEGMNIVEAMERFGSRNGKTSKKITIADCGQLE
- experiment-description: In vitro inhibition of human Cyclophilin A/protein interaction.
metric-name: pIC50
To interpret pIC50, take it as minus log10 of a concentration measured in moles per litre.

Problem: Field request: pIC50 | item: `H-HAGPIA-OH`
Result: 2.70

* * *

- subject-of-test: Peptidyl-prolyl cis-trans isomerase A (Homo sapiens)
- experiment-description: In vitro inhibition of human Cyclophilin A/protein interaction.
Starred links: 1 amine or outer side, 2 acyl side, 3 side chain; linkers in the order of their positions; H or OH if unused. Non-standard residues stand in square brackets, D forms with d. Residues, ends and D or L forms follow the SMILES beside them. *: point of attachment. X2 = O=C(C1CCCC1N[*:1])[*:2]; Isovaleryl = CC(C)CC(=O)*; NHBn = c1ccc(CN*)cc1
Please go through the items and note down their IC50.
Only the number, expressed in µM, is required.

Problem: Field request: IC50 | item: CC(C)CC(=O)N[C@@H](Cc1cnc[nH]1)C(=O)N[C@@H](C)C(=O)NCC(=O)N1CCC[C@H]1C(=O)NC1CCCC1C(=O)NCc1ccccc1 (stereo partly drawn) (Isovaleryl-HAGP[X2]-NHBn)
Result: 90

Problem: Please give the result for `CC(=O)N[C@H](C(=O)N[C@@H](Cc1c[nH]cn1)C(=O)N[C@@H](C)C(=O)NCC(=O)N1CCC[C@@H]1C(=O)N[C@@H](C(=O)N[C@@H](C)C(N)=O)c1ccccc1)C(C)C` too.
Result: 820

Problem: Please give the result for CC(=O)N[C@H](C(=O)N[C@@H](Cc1c[nH]cn1)C(=O)N[C@@H](C)C(=O)NCC(=O)N1CCC[C@H]1C(=O)NC1CCCC1C(=O)N[C@@H](C)C(N)=O)C(C)C (stereo partly drawn) (Ac-VHAGP[X2]A-NH2) too.
Result: 680

Data credit: ChEMBL document CHEMBL1135656
